Hello, the source for this data is the supplement of paper PMC7125110, in case you need it.

B1: glmS ribozyme (parent)
chain: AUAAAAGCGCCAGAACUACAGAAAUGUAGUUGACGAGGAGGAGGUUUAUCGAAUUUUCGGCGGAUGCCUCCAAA

variants of: B1; assay: self-cleavage kobs at 2500 uM GlcN6P; higher = faster cleavage; RNA array; details: with glucosamine-6-phosphate
This sample holds only a part of the variants without activity.
Decision: self-cleavage kobs at 2500 uM GlcN6P >= 0.0002 s⁻¹ yields fulfilled, all other cases yield not fulfilled.

Previously resolved entries follow.
Is self-cleavage kobs at 2500 uM GlcN6P at least 0.0002 s⁻¹? Consider G13C U69G not fulfilled

Could you please find out whether U56A A64U has self-cleavage kobs at 2500 uM GlcN6P that meets 0.0002 s⁻¹ or exceeds it? not fulfilled

Is it the case that G7A A33C A42C A48C has self-cleavage kobs at 2500 uM GlcN6P reaching or exceeding 0.0002 s⁻¹? not fulfilled

Would you say A14C G41U shows self-cleavage kobs at 2500 uM GlcN6P at minimum 0.0002 s⁻¹? not fulfilled

I'd appreciate it if you could say whether A42G C61A U65C has self-cleavage kobs at 2500 uM GlcN6P at least equal to 0.0002 s⁻¹. not fulfilled

More entries:
Entry A48G C70G : is its self-cleavage kobs at 2500 uM GlcN6P no less than 0.0002 s⁻¹? not fulfilled

Tell me whether self-cleavage kobs at 2500 uM GlcN6P is at least 0.0002 s⁻¹ here: G7C A14C U46G not fulfilled

# bool: self-cleavage kobs at 2500 uM GlcN6P of U30G C34A C68U >= 0.0002 s⁻¹ not fulfilled

self-cleavage kobs at 2500 uM GlcN6P >= 0.0002 s⁻¹ for A14C C34U U54C ? not fulfilled

Hi, just wondering whether G9A C11G shows self-cleavage kobs at 2500 uM GlcN6P of 0.0002 s⁻¹ or higher. not fulfilled
